# study conditions: in ethanol, 313.15 K
measurement kind: solubility (mole fraction)
// return a plain number; no unit text

Consider the molecule Cc1ccc2cc(Br)ccc2n1 . State its measured solubility (mole fraction).
0.00289

---

# study conditions: in ethyl acetate, 313.15 K
measurement kind: solubility (mole fraction)

Consider the compound Cc1ccc2cc(Br)ccc2n1 . State its measured solubility (mole fraction).
0.0218

---

# study conditions: in isopropanol, 318.15 K
measurement kind: solubility (mole fraction)
// return a plain number; no unit text

Consider the compound Cc1ccc2cc(Br)ccc2n1 . State its measured solubility (mole fraction).
0.00703

---

# study conditions: in acetone, 323.15 K
measurement kind: solubility (mole fraction)
// return a plain number; no unit text

Consider the molecule Cc1ccc2cc(Br)ccc2n1 . State its measured solubility (mole fraction).
0.0276
